Molecular target: LXRα/SRC1 (Homo sapiens)
Construct: Human his-tagged LXRα LBD (200-447); His tag
Sequence (Q13133 200-447): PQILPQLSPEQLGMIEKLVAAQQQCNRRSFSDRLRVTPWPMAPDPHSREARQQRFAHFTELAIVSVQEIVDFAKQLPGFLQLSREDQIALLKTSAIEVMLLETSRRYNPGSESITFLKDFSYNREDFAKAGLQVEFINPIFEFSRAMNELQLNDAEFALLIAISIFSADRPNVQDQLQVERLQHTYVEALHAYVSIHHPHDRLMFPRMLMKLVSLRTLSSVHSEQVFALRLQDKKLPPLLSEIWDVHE
Sequence (Q15788 with tags, fused parts or gaps partner limits assumed): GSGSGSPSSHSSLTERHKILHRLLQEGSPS
Experiment: SPR cofactor recruitment, LXRα LBD binding to immobilized SRC1 coactivator peptide
Settings: LXRα LBD 0.02–10 µM equilibrated with compound (50 μM)
ASSAY ENDPOINT: pKd
The quantity pKd is defined as the negative base-10 logarithm of the molar concentration.

# compound CC(C)N1C(=O)C(NC2CCN(c3ncc(CC(=O)O)cc3Cl)CC2)=C(c2ccccc2)S1(=O)=O ; its pKd = 5.82

* * *

As shown below, each of these compounds has a reported Emax value.
Target: LXRα (Homo sapiens, UniProt Q13133)
Construct: expression vectors pSG5-Gal4-LXRα LBD or pSG5-Gal4-LXRβ LBD; expressed in transfected cells; host or cells: U2OS osteosarcoma cells
Experiment: Gal4 one hybrid reporter gene (transactivation) assay in U2OS cells, LXRα
Type: cell-based
Conditions: U2OS, 40 h; maximal activation compared with a reference full agonist; value (SD, n); read-out: LXRα transactivation Agonist efficacy, %
Give just the numeric value; % need not be written.

Use the examples below as a reference point.
O=C(O)Cc1cccc(OCCCN(Cc2cccc(C(F)(F)F)c2Cl)CC(c2ccccc2)c2ccccc2)c1 [GW3965, reference compound]; 93.5
CC(C)(C)N1C(=O)C(Cc2ccccc2)=C(NC2CCN(c3ncc(CC(=O)O)cc3Cl)CC2)C1=O; 85.3

Pending compound:
# compound Fc1ccc(-c2c3cccc(C(F)(F)F)c3nn2Cc2ccc(F)cc2Cl)cc1 [LXR-623, reference compound] ; its Emax = 102

* * *

Molecular target: LXRβ (Homo sapiens, UniProt P55055)
Construct: expression vectors pSG5-Gal4-LXRα LBD or pSG5-Gal4-LXRβ LBD; expressed in transfected cells; host or cells: U2OS osteosarcoma cells
Sequence (P55055 222-460 limits assumed): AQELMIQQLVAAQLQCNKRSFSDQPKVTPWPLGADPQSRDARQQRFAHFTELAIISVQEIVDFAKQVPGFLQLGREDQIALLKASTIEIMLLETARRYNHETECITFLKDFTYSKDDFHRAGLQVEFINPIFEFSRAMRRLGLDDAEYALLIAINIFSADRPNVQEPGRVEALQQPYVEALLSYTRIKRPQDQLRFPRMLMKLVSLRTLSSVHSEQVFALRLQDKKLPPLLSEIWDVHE
Assay: Gal4 one hybrid reporter gene (transactivation) assay in U2OS cells, LXRβ
Format: cell-based
Settings: U2OS, 40 h; maximal activation compared with a reference full agonist; value (SD, n); read-out: LXRβ transactivation Agonist efficacy, %
As shown below, each of these compounds has a reported Emax value.
Give just the numeric value; % need not be written.

CN(C)C(=O)c1cnc(N2CC[C@@H](CNC3=C(c4ccccc4)S(=O)(=O)N(C(C)(C)C)C3=O)C2)c(Cl)c1 [AZ5]; 66.5

# compound O=C(O)Cc1ccc(CNC(=O)[C@@H]2Cc3ccccc3N2S(=O)(=O)c2ccc(-c3ccccc3C(F)(F)F)cc2)cc1 [F1, reference compound] ; its Emax = 105

* * *

Target: LXRα LBD (Homo sapiens, UniProt Q13133)
Sequence (Q13133 200-447): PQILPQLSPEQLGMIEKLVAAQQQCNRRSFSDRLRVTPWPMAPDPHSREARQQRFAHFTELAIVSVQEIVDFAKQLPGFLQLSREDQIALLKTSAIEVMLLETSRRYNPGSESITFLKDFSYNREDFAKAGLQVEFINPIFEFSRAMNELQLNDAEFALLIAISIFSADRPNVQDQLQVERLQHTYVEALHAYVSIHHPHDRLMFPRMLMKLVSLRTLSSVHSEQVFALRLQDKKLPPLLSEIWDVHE
Test: differential HDX-MS of LXRα LBD (apo vs ligand-bound)
Design: Human his-tagged LXRα LBD (200-447); His tag; made in house; host or cells: Escherichia coli BL21(DE3)
Conditions: after 600 s of deuterium exchange
ASSAY ENDPOINT: protection of LXRα H3 from deuterium exchange

O=C1C(Cc2ccccc2)=C(NCCCCc2ccccc2)C(=O)N1Cc1ccccc1; no effect
Fc1ccc(-c2c3cccc(C(F)(F)F)c3nn2Cc2ccc(F)cc2Cl)cc1 [LXR-623, reference compound]; no effect
CN(C)C(=O)c1cnc(N2CC[C@@H](CNC3=C(c4ccccc4)S(=O)(=O)N(C(C)(C)C)C3=O)C2)c(Cl)c1; no effect
CC(C)(O)c1cn(-c2ccc(-c3cc(F)c(CO)c(S(C)(=O)=O)c3)cc2F)c(C(C)(C)c2c(Cl)cccc2Cl)n1; 60%
